experimentalDetails: Cytotoxicity of A23187 and hydrogen peroxide on stable transfectants, propidium iodide uptake by flow cytometry
testConditions: Chinese hamster, Percent cytotoxicity, 4 μg/ml A23187; Untransfected HA-1 cells
Protocol: MATERIAL AND METHODS: Cell culture and treatment conditions. […] Stress analyses. […] At this time, the cells were exposed to each stress agent and cytotoxicity measured. […] Stable adapt78-overexpressing, vector control and non-transfected control HA-1 cells were exposed to 4 μg/ml calcium ionophore A23187 or […] for 60 minutes (A23187) or 90 minutes (hydrogen peroxide). Cytotoxicity was then determined by propidium iodide uptake using flow cytometry as follows. […]

| smilesRepresentation | cytotoxicity at 60 min, 4 μg/ml, % |
| --- | --- |
| CNc1ccc2oc(C[C@H]3O[C@@]4(CC[C@H]3C)O[C@H]([C@H](C)C(=O)c3ccc[nH]3)[C@H](C)C[C@H]4C)nc2c1C(=O)O | 48.2 |
